- targetDesc: T1, FLP recombinase (Saccharomyces cerevisiae, UniProt P03870 P03870:1-423)
- T1 sequence: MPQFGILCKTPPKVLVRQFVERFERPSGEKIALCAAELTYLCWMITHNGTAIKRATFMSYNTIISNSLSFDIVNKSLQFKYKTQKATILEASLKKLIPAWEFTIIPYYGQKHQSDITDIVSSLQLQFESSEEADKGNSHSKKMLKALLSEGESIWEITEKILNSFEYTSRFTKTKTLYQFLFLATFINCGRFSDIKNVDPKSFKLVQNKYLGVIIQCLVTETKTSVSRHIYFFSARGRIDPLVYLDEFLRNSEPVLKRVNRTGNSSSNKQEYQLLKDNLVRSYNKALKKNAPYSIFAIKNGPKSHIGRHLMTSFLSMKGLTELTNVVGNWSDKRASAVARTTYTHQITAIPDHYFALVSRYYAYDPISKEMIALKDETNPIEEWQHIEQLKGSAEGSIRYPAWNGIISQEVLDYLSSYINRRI
- assayDetails: recombination of two identical sites; same buffer
- runParameters: tags: untagged; expressed from recombinant adenovirus AxCAFLP (2 micron DNA FLP gene) in 293 cells; chain copies: 4
readout: activity (%)
Numbers only, in %.

Please give the measured activity for this binder: f2161 mutant FRT (dsDNA) DNA 1: TCGAGGACGTCGAAGTTCCTATACTCTCTGGAGAATAGGAACTTCTCCGGAA DNA 2: CTAGTTCCGGAGAAGTTCCTATTCTCCAGAGAGTATAGGAACTTCGACGTCC
4.5

Could you report activity for every entry in the following list?
1. F3 mutant FRT (dsDNA) DNA 1: TCGAGGACGTCGAAGTTCCTATACTATTTGAAGAATAGGAACTTCTCCGGAA DNA 2: CTAGTTCCGGAGAAGTTCCTATTCTTCAAATAGTATAGGAACTTCGACGTCC
2. f2262 mutant FRT (dsDNA) DNA 1: TCGAGGACGTCGAAGTTCCTATACTATCTTGAGAATAGGAACTTCTCCGGAA DNA 2: CTAGTTCCGGAGAAGTTCCTATTCTCAAGATAGTATAGGAACTTCGACGTCC
3. f2151 mutant FRT (dsDNA) DNA 1: TCGAGGACGTCGAAGTTCCTATACTCTCCAGAGAATAGGAACTTCTCCGGAA DNA 2: CTAGTTCCGGAGAAGTTCCTATTCTCTGGAGAGTATAGGAACTTCGACGTCC
4. f72 mutant FRT (dsDNA) DNA 1: TCGAGGACGTCGAAGTTCCTATACTTTCTACAGAATAGGAACTTCTCCGGAA DNA 2: CTAGTTCCGGAGAAGTTCCTATTCTGTAGAAAGTATAGGAACTTCGACGTCC
5. f61 mutant FRT (dsDNA) DNA 1: TCGAGGACGTCGAAGTTCCTATACTTTCTGGAGAATAGGAACTTCTCCGGAA DNA 2: CTAGTTCCGGAGAAGTTCCTATTCTCCAGAAAGTATAGGAACTTCGACGTCC

1: 3.1; 2: 3.8; 3: 2.9; 4: 10.9; 5: 2.6
